# Test system: SF-539 CNS
# assay.protocol: NCI tumour cell line growth inhibition, 48 h
Measured GI50 accompanies every entry in the list below.

As a guide, the following entries are already answered.
| compound.string | assayed.system | reading |
| --- | --- | --- |
| O=C(O)c1cn(C2CC2)c2cc(N3CCN(C(=O)Nc4nc(-c5ccc(Br)cc5)cs4)CC3)c(F)cc2c1=O | SF-539 CNS | 1.56 µM |
| c1ccc(-c2cn(-c3ccccc3)c(-c3ccccc3)n2)cc1 | SF-539 CNS | 14.2 µM |

Turning now to a further molecule:
Please report the measured GI50 for O=Cc1ccc(-c2ccc(-c3ccc(C=O)o3)[se]2)o1
> 100 µM

====

Known TGI of a selection of compounds
# System: HT29 colon
# assay.protocol: NCI tumour cell line growth inhibition, 48 h

| compound | assayed.system | TGI |
| --- | --- | --- |
| N#C/C(=C\c1ccc(F)cc1)n1nc2cccc(F)c2n1 | HT29 colon | > 100 µM |

Given the compound NC(=S)N/N=C(\CCC(=O)Nc1ccccc1[N+](=O)[O-])CC(=O)c1ccco1 , write its reported TGI.
> 100 µM

Give the value of TGI reported for the following: Cc1cc(C)c(S(=O)(=O)N(CCCN)OCCON(CCCN)S(=O)(=O)c2c(C)cc(C)cc2C)c(C)c1
40.4 µM

Respond only with TGI recorded for O=C(Nc1ccccc1)c1cccc([N+](=O)[O-])c1
> 100 µM

Tell me measured TGI for OCCCc1cnco1 please.
> 100 µM

Please list TGI recorded for the compound CCC(C)(C)[C@H](NC(=O)[C@H]1CCCCN1C)C(=O)N(C)[C@H](C[C@@H](OC(C)=O)c1nc(C(=O)N[C@@H](Cc2ccccc2)C[C@H](C)C(=O)O)cs1)C(C)C
> 16.7 µM

Give recorded TGI. C/C(=N/NC(=S)N1CC2CCC(CC2)C1)c1cnccn1
12.2 µM

Report measured TGI; entry is Cc1cc(=O)oc2cc(OC(=O)Nc3ccccc3)ccc12
> 100 µM

Fill in reported TGI for this entry: C=C(COC(C)=O)CC(/C=C(\C)CC/C=C(\C)CO)OC(C)=O (stereo not given)
> 100 µM

Please supply the value of reported TGI for the item COc1ccccc1N1C(=O)CSC1c1cc(OC)c(OC)c(OC)c1 (stereo not given)
> 100 µM

====

# Test system: HCC-2998 colon
# assay.protocol: NCI tumour cell line growth inhibition, 48 h; in the data active means GI50 below about 0.43 µM; inactive means the rest
Give one outcome, nothing more. List: Yes = active, No = inactive

As a guide, the following entries are already answered.
| molecule | category |
| --- | --- |
| O=C1/C(=C\c2ccccc2)CN(C(=O)c2ccccc2)C/C1=C\c1ccccc1 | No |
| CCC(C)(C)[C@H](NC(=O)[C@H]1CCCCN1C)C(=O)N(C)[C@H](C[C@@H](OC(C)=O)c1nc(C(=O)N[C@@H](Cc2ccccc2)C[C@H](C)C(=O)O)cs1)C(C)C | Yes |
| CC(C)OCc1cc(CN2CCN(c3cccc(Cl)c3)CC2)c(O)c2ncccc12 | No |
| C=C(CN1CCN(c2ccccc2C(F)(F)F)CC1)c1ccc(C(=O)Nc2ccccc2N)cc1 | No |
| Cc1ccc(NC(=O)c2nc(S(C)(=O)=O)oc2-c2ccc(F)cc2)cc1Nc1ccc2ncn(C)c(=O)c2c1 | No |

Proceed to the following item.
Each molecule tested received a call. Report the one for O=C(/C=C/c1nnc2n(Cc3ccccc3)c(=O)c3c4c(sc3n12)CCCC4)c1ccccc1 .
No
